test system: MDA-MB-231 breast; test: NCI-60 one-dose screen, 48 h (100 = growth as untreated, 0 = no growth, -100 = all killed); settings: 10 µM unless noted
This is part of a sample that, as a whole, favours compounds with a hit. Of some 83,000 tested, about 20% had one in any assay.
Field: growth. Provide a value for each of the compounds that follow.
Answers are plain numbers, in %.

Known results for compounds:
| COMPOUND | ENDPOINT_UNIT | NUMERIC_RESULT |
| --- | --- | --- |
| Cn1cc(-c2cc(N)n3nc(-c4c[nH]c5ccccc45)cc3n2)c2ccccc21 | % | -89.8 |
| NC(=Nc1ccc(OCCCCCCCCn2cnnn2)cc1)c1ccccc1 | % | 11.8 |
| COc1ccc([C@H]2C(C(=O)c3ccc(Cl)cc3)C3(N[C@@H]2c2ccccc2)C(=O)Nc2ccccc23)cc1 (some centres undefined) | % | 25.8 |
| COc1ccc(C(=O)NNC(=O)CSc2nc3sc4c(c3c(=O)n2-c2ccc(Cl)cc2)CCCC4)cc1 | % | 44 |
| CS(=O)(=O)c1ccc(-n2nc(C(=O)NCc3ccccc3)cc2-c2ccc(Cl)cc2)cc1 | % | 96.3 |

Hi there! I need growth for each item below, if you can.
1. N#Cc1c(NC(=O)N2CCOCC2)n(-c2ccc(OC(F)(F)F)cc2)c2cc(F)ccc12
2. Cc1ccc(N=Nc2c(N)nn3c(-c4cc5ccccc5oc4=O)ccnc23)cc1

73.7
30.7

I would be grateful if you could provide growth for each of the following entries.
1. N#CC1=C(c2ccco2)Nc2c(c(-c3ccccc3)nn2-c2ccccc2)C12C(=O)Nc1ccc(Br)cc12 (centres undefined)
2. Cc1ccc2nc(SCc3ccccc3F)n(-c3ccccc3)c(=O)c2c1

[33.2, 76.1]
